Target: T1, human LAG3 (form used in Octet, Biacore and HDX-MS not given) (human, UniProt P18627 23-450, limits assumed)
T1 sequence (looked up): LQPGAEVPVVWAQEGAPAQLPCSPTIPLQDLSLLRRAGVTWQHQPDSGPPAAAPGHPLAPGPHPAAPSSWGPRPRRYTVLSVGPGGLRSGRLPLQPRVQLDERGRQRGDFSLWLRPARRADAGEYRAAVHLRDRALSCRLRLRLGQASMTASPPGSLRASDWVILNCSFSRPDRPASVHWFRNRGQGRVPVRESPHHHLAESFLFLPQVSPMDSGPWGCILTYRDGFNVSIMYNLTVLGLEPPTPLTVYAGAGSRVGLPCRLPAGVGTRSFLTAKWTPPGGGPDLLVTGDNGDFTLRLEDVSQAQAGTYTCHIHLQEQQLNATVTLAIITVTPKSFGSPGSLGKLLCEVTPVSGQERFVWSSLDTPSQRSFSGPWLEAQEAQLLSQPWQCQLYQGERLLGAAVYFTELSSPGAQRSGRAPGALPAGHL
Experiment: BLI (Octet), 1:1 fit
Reported pKd values for a set of binders
// pKd is dimensionless: -log10 of concentration (M)

As a guide, the following entries are already answered.
[
  {
    "binder": "029c (antibody, human IgG4, V domains shown, human IgG4 S228P / kappa chimeric antibody; also called chimeric antibody 029; not shown: human kappa light chain constant region (pcDNA3.4-hIgGk vector)) VH: DVKLVESGEDLVKPGGSLKLSCAASGFTFSSYAMSWVRQTPEKRLEWVAYVTSGGDYIYYADTVKGRFTISRDDVRNTLYLQMSSLKSEDTAMYYCTRVAYDYEWYFDVWGTGAPVTVSS VL: DIVMTQSHKFMSTSVGDRVSITCKASQDVTTAVAWYQQKPGQSPKLLIYSASYRYTGVSDRFTGSGSGTDFTFTISSVQAEDLALYYCQQHDSSPWTFGGGTKLEIK",
    "measurement label": "pKd",
    "measured result": 8.45
  },
  {
    "binder": "TSR-033 (antibody, V domains shown) VH: EVQLVQSGAEVKKPGATVKISCKASGFSIKDDYIHWVQQAPGKGLEWMGWIDAMNDDSQYSSKFQGRVTITVDTSTNTAYMKLSSLRSEDTAVYYCTYAFGGYWGQGTTVTVSS VL: DIVMTQTPLSLSVTPGQPASISCRSSQSLVHSDSNTYLHWYLQKPGQSPQLLIYLVSNRFSGVPDRFSGSGSGTDFTLKISRVEAEDVGVYFCGQSTHVPYAFGGGTKVEIK",
    "measurement label": "pKd",
    "measured result": 8.57
  },
  {
    "binder": "021c (antibody, human IgG4, V domains shown, human IgG4 S228P / kappa chimeric antibody; also called chimeric antibody 021; not shown: human kappa light chain constant region (pcDNA3.4-hIgGk vector)) VH: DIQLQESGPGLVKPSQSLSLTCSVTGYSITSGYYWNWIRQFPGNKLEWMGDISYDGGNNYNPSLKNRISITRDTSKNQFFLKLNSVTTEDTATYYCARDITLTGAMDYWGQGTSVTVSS VL: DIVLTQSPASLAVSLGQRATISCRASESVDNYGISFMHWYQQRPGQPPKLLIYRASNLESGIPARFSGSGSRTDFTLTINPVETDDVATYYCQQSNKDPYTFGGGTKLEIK",
    "measurement label": "pKd",
    "measured result": 8.19
  }
]

Turning now to a further binder:
Read off the recorded pKd for 023c (antibody, human IgG4, V domains shown, human IgG4 S228P / kappa chimeric antibody; also called chimeric antibody 023; ES005-023c; not shown: human kappa light chain constant region (pcDNA3.4-hIgGk vector)) VH: QIQLVQSGPVLKKPGETVKISCKASGYTFTESPMNWVKQAPGRGFKWMGMIYTDTGEPTYAEEFKGRFAFSLETSASTAYLQINNLKSEDTATYFCVSDYGSILYWYFDVWGTGTTVTVSS VL: DIVMTQSHKFMSTSVGDRVSITCKASQDVSTAVAWYQQTPGQSPKLLIYSASYRYTGVPDRFTGSGSGTDFTFTISSVQAEDLAVYYCQQHYNSPPTFGAGTKLELK 9.19
